Molecular target: MeCP2-TBL1 interaction (MeCP2-SmBiT / TBL1-LgBiT) (Mus musculus)
Construct: expressed in transfected cells; crude lysate used as a cell-free assay
Sequence (Q9QXE7 166-527): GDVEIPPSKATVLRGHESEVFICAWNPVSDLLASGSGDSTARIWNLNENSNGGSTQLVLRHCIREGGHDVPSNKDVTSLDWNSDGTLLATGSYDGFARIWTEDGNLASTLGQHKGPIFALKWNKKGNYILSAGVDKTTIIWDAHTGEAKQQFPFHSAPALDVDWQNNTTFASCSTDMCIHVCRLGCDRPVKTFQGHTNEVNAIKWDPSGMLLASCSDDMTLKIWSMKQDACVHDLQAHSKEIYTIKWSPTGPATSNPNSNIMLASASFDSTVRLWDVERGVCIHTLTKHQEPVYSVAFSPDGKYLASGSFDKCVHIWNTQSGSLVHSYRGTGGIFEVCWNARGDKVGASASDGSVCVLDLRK
Assay: MeCP2-TBL1 NanoLuc luciferase complementation assay (cell-free, extracts of transfected HEK293 cells);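 further: each compound tested at 20 µM final concentration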
Format: binding, human
Settings: primary screen of the Asinex library, sheet "Sargen output Asinex library", one well per compound, Batch Ref. 1
Field: Inhibition percent. Provide a value for each of the molecules that follow.
Give the value; after it, write the unit.

So for CNc1nc(C2CCCCN2C(=O)CCCN(C)c2ccccc2)nc2c1CCN(C(C)=O)C2 (centres unmarked) , the logged Inhibition percent turned out to be -2.14%

Quick note, Inhibition percent for `Cc1ccccc1OCCN1C(=O)CCc2c(C)nc(CN(C)C(=O)C3CCCC3)nc21` landed at -1.66%

Record Cc1cc(Nc2cccc(C3CN(C(=O)Cc4ccc5c(c4)CCCO5)CCO3)n2)nn1C (centres unmarked) . Reported Inhibition percent: -0.41%

Memo: `Cc1nc2cc(NC(=O)CN3C[C@@H](c4cc(F)cc(F)c4)[C@@]4(CCCCC(=O)N4)C3)ccc2n1C` , reported Inhibition percent: 1.15%

Entry Cc1cc(-c2ccc(N)nc2)cc(C2CN(C(=O)CCc3cccc(Cl)c3)CCO2)n1 (centres unmarked) — recorded Inhibition percent = 8.38%

Entry Cc1nnc(Nc2cccc(C3CN(C(=O)Cn4c(C)cc5ccccc54)CCO3)n2)s1 (centres unmarked) — recorded Inhibition percent = -1.26%

The reported Inhibition percent of the molecule `Cc1ncc(C(=O)NCc2ccccc2)c(CC2CCN(C(=O)C3CCCCC3)CC2)n1` was -4.61%

// recorded Inhibition percent for `O=C1CCCC[C@]2(CN(Cc3ccc(-c4ccccc4)cc3)C[C@H]2c2cc(F)cc(F)c2)N1` : 4.82%

Entry `CCOc1ccc(-c2cc(C(=O)N3[C@@H](Cc4ccccc4)[C@@H]4C[C@@]5(C)[C@H](CCC[C@@H]35)N4)[nH]n2)cc1` ; Inhibition percent = 12.86%

// `O=C1CCC[C@]2(CN(Cc3cccc(-c4ccccc4F)c3)C[C@H]2c2ccccc2F)N1` : Inhibition percent value = 11.53%

For reference, reported Inhibition percent for `Cc1cccnc1C(=O)N1CC2(CO[C@@H]3c4ccccc4OC(C)(C)[C@H]3C2)C1` stands at 0.31%
